Target: human GPCR sphingosine 1-phosphate receptor 5 (Homo sapiens)
Construct: host or cells: CHO
Sequence (Q9H228 whole entry): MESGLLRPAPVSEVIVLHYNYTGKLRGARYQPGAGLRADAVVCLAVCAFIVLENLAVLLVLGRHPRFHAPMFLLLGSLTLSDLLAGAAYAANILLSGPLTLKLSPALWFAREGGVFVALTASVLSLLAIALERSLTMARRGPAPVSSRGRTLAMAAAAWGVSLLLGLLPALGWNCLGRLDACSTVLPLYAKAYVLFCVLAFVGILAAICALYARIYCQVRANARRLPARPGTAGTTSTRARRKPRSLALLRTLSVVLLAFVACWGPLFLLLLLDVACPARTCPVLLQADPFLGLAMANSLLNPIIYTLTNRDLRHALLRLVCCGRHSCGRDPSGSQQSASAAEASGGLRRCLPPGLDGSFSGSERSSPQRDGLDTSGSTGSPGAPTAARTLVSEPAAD
Test: S1PR5 selectivity Ca2+ flux assay (antagonist readout)
Type: cell-based
Conditions: CHO cells overexpressing human S1PR5 and Gq, agonist at EC80 (20 nM), read-out: S1P5 EC50 (nM), S1P5 antagonist EC50
Outcome Measure: EC50 (nM)

# Molecule, Tested Target, Unit Annotation, Measured Number
measured = [
    ("O=C(O)CN1CCC(n2nc(Cc3cn4cc(OCC5CC5)c(Cl)cc4n3)c3ccccc3c2=O)C1 (stereo not shown) [Compound 87]", "human GPCR sphingosine 1-phosphate receptor 5 (Homo sapiens)", "nM", 19800),
    ("O=C(O)Cn1nc(Cc2nc3cc(OCC4CC4)c(F)cc3[nH]2)c2ccccc2c1=O [Compound 124]", "human GPCR sphingosine 1-phosphate receptor 5 (Homo sapiens)", "nM", 19800),
    ("O=c1c2ccccc2c(Cc2nc3cc(Cl)c(OC(F)(F)F)cc3[nH]2)nn1CC1CCNC1 (stereo not shown) [Compound 57]", "human GPCR sphingosine 1-phosphate receptor 5 (Homo sapiens)", "nM", 19800),
    ("N#Cc1cc2nc(Cn3nc(C(=O)O)c(=O)c4ccccc43)[nH]c2cc1OCC1CC1 [Compound 110]", "human GPCR sphingosine 1-phosphate receptor 5 (Homo sapiens)", "nM", 2240),
    ("O=C(Cc1nn(Cc2nc3cc(OCC(F)F)c(F)cc3[nH]2)c2ccccc2c1=O)N1CCOCC1 [Compound 50]", "human GPCR sphingosine 1-phosphate receptor 5 (Homo sapiens)", "nM", 19800),
]

P = O=C(O)C1(n2nc(Cn3cc4cc(OCC5CC5)c(Cl)cc4n3)c3ccccc3c2=O)CC1 [Compound 95]
Q = O=C(O)Cn1nc(Cn2cc3cc(OCC4CC4)c(Cl)cc3n2)c2ccccc2c1=O [Compound 114]
// compare measured EC50, left P , right Q , return larger Return value: the label identifying the chosen record.
P
